Would you kindly list pKi for each of these molecules?
Target: KIF18a-Microtubule Complex (Homo sapiens (Human))
Sequence (Q8NI77 whole entry, looked up): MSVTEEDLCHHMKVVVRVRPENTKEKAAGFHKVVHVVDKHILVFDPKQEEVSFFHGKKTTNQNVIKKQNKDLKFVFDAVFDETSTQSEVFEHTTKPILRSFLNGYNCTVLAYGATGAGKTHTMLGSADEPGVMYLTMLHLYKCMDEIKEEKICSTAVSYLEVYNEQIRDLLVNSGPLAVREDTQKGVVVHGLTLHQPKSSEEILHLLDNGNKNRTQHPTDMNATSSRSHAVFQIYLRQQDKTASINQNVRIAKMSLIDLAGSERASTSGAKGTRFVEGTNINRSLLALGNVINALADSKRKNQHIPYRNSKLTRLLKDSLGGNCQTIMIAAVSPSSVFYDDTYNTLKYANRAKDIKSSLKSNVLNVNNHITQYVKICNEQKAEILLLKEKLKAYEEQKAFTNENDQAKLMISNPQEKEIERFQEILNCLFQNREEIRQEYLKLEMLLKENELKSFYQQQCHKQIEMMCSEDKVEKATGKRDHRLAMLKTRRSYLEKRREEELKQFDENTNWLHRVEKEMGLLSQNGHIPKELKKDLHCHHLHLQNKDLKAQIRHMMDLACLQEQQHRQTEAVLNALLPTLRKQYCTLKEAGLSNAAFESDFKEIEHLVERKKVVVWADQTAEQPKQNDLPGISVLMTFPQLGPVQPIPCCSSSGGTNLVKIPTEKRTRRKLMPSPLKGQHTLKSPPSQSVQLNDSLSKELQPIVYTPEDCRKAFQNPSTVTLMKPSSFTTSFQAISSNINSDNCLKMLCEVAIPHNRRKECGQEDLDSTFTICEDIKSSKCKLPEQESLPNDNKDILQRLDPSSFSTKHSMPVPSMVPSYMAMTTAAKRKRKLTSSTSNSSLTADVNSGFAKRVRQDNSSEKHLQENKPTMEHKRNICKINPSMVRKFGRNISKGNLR
Sequence (Q2XVP4 whole entry partner, looked up): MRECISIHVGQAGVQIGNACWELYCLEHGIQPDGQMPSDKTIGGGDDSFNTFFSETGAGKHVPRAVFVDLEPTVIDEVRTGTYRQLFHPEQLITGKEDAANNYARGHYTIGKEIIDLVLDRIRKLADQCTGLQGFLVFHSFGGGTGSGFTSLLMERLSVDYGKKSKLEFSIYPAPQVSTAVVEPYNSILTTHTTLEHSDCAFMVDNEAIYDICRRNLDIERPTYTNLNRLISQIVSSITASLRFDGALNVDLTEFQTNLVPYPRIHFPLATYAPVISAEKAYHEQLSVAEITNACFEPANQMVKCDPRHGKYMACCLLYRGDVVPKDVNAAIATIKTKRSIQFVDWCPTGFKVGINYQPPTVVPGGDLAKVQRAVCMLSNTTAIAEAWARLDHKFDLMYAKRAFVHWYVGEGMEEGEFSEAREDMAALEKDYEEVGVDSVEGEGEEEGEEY
Sequence (P02554 whole entry partner, looked up): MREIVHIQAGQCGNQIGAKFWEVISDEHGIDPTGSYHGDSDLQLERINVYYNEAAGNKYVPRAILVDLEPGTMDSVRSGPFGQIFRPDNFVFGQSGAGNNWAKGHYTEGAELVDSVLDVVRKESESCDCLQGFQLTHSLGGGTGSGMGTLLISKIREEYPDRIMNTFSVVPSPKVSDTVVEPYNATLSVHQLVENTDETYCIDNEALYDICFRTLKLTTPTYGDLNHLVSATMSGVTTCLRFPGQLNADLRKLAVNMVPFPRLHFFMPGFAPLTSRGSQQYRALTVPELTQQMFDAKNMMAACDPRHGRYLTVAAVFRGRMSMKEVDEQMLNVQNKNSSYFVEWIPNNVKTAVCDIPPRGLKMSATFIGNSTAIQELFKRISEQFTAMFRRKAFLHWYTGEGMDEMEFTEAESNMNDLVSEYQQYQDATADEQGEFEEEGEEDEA
Assay Protocol: Binding kinetics to KIF18a-microtubule complex (global progress curve analysis)
Details: read-out: KI (determined from binding kinetic assay koff/kon); koff/kon
Recall that pKi is obtained by taking minus log10 of the concentration measured in molar.

Exercise: Which pKi value is on record for CC(C)(C)NS(=O)(=O)c1cccc(C(=O)N2C[C@]3(CC[C@H](C(F)F)CC3)c3cc(NS(C)(=O)=O)ccc32)c1 [Compound 162a] ?
Key: 8.72

Exercise: Which pKi value is on record for CC(C)(C)NS(=O)(=O)c1cccc(C(=O)N2CC3(CCC4(CC4)CC3)c3cc(NS(C)(=O)=O)ccc32)c1 ?
Key: 9.26

Exercise: Which pKi value is on record for CS(=O)(=O)Nc1ccc2c(c1)C1(CCC3(CC3)CC1)CN2C(=O)c1cccc(S(=O)(=O)C2CC(F)(F)C2)c1 ?
Key: 8.48
